molecular target: human ErbB2, full length, on cells (human, UniProt P04626 23-1255); assay: cell-based or functional assay
PROPERTY MEASURED: % Inhibition @10 µg/ml (n1), ErbB2 phosphorylation in BT474 cells at 48 hours (%)
Answer in %, number only, no unit symbol.

Would you please look over these solved cases?
monoclonal antibody 1.14.1 (antibody, V domains shown, Fully human IgG (gamma/kappa) from a XenoMouse XM3B-3 hybridoma; constant regions not tied to it) VH: EVQLVESGGGLVKPGGSLRLSCAASGFTFSSYSMNWVRQAPGKGLEWVSSISSSSSYIYYADSVKGRFTISRDNAKNSLYLQMNSLRAEDTAVYYCARGGDGYNYYYFDYWGQGTLVTVSS VL: DIVMTQSPDSLAVSLGERATITCKSSQSVFFRSNNKNCLTWYQQRPGQPPNLLIYWASTRESGVPDRFSGSGSGTDFTLTINNLQAEDVAVYYCQQYFGSPFTFGPGTKVDIK	37
monoclonal antibody 1.100.1 (antibody, V domains shown, Fully human IgG (gamma/kappa) from a XenoMouse XM3B-3 hybridoma; constant regions not tied to it; also called 1.100.2; 1.100.3) VH: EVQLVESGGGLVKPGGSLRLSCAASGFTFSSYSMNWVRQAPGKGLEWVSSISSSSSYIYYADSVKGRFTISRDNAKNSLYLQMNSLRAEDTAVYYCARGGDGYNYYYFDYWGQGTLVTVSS VL: DIVMTQSPDSLAVSLGERATITCKSSQSVFFRSNNKNCLAWYQQRPGQPPNLLIYWASTRESGVPDRFSGSGCGTDFTLTISSLQAEDVAVYYCQQYFGSPFTFGPGTKVDIK	37

## Task Given monoclonal antibody 1.96 (antibody, V domains shown, Fully human IgG (gamma/kappa) from a XenoMouse XM3B-3 hybridoma; constant regions not tied to it) VH: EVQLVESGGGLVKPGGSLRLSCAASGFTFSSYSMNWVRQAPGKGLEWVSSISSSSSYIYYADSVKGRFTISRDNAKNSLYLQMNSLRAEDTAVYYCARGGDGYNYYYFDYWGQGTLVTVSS VL: DIVMTQSPDSLAVSLGERATITCKSSQSVFFRSNNKNCLAWYQQRPGQPPNLLFYWASTRESGVPDRFSGSGSGTDFTLTISSLQAEDVAVYYCQQYFGSPFTLGPGTKVDIK , state its recorded % Inhibition @10 µg/ml (n1), ErbB2 phosphorylation in BT474 cells at 48 hours.
## Result 37

Source of measurements: patent US20130089544A1
